The measured values listed here are drawn from paper PMC7356578.

Target: T1, Recombinant human tissue kallikrein 1 (KLK1), wild type (human, UniProt P06870 25-262)
T1 construct: tissue kallikrein 1 (KLK1), human, residues 25-262; Vector pE-SUMO3; also called kallikrein-related peptidase 1
Assay: kinetics of protease inhibition (discontinuous assay); pseudo-first-order; 10 nM protease with 100-500 nM kallistatin variant, PBS, 0.1% PEG 8000, 22 ± 1 °C; apparent second-order rate constant kapp from kobs; k2 = kapp × SI
Settings: both partners purified
Measured quantity: kapp (apparent second-order rate constant) (M⁻¹ s⁻¹)
Give bare numbers, in M⁻¹ s⁻¹.

# Binder, Display unit, Val
measured = [
    ("rKAL-307/308D (natural protein, human, UniProt P29622 45-427, looked up, kallistatin (SERPINA4), human, residues 45-427; double mutant of K307 and R308 to Asp; also called rKAL-K307/308D; source: E. coli BL21 (DE3), purified (HisTrap FF crude, SENP2 digestion, HiTrap SP)) GSPSLKIAPANADFAFRFYYLIASETPGKNIFFSPLSISAAYAMLSLGACSHSRSQILEGLGFNLTELSESDVHRGFQHLLHTLNLPGHGLETRVGSALFLSHNLKFLAKFLNDTMAVYEAKLFHTNFYDTVGTIQLINDHVKKETRGKIVDLVSELKKDVLMVLVNYIYFKALWEKPFISSRTTPKDFYVDENTTVRVPMMLQDQEHHWYLHDRYLPCSVLRMDYKGDATVFFILPNQGKMREIEEVLTPEMLMRWNNLLRDDNFYKKLELHLPKFSISGSYVLDQILPRLGFTDLFSKWADLSGITKQQKLEASKSFHKATLDVDEAGTEAAAATSFAIKFFSAQTNRHILRFNRPFLVVIFSTSTQSVLFLGKVVDPTKP", "M⁻¹ s⁻¹", 1300),
]

Identify measured kapp (apparent second-order rate constant) corresponding to rKAL-R300D (natural protein, human, UniProt P29622 45-427, looked up, kallistatin (SERPINA4), human, residues 45-427; source: E. coli BL21 (DE3), purified (HisTrap FF crude, SENP2 digestion, HiTrap SP)) GSPSLKIAPANADFAFRFYYLIASETPGKNIFFSPLSISAAYAMLSLGACSHSRSQILEGLGFNLTELSESDVHRGFQHLLHTLNLPGHGLETRVGSALFLSHNLKFLAKFLNDTMAVYEAKLFHTNFYDTVGTIQLINDHVKKETRGKIVDLVSELKKDVLMVLVNYIYFKALWEKPFISSRTTPKDFYVDENTTVRVPMMLQDQEHHWYLHDRYLPCSVLRMDYKGDATVFFILPNQGKMREIEEVLTPEMLMDWNNLLRKRNFYKKLELHLPKFSISGSYVLDQILPRLGFTDLFSKWADLSGITKQQKLEASKSFHKATLDVDEAGTEAAAATSFAIKFFSAQTNRHILRFNRPFLVVIFSTSTQSVLFLGKVVDPTKP 1600
